Experimental Details: DRUGMATRIX: Glutamate, Kainate radioligand binding (ligand: [3H] Kainic acid)
Type: cell membranes, Rattus norvegicus, Wistar, Brain, Membrane
Reported Conditions: Not Active = under 50% inhibition at 10 µM
Measurement Kind: Ki

Before answering, review these 8 worked examples.
Compound: CC(C)n1c(/C=C/C(O)CC(O)CC(=O)O)c(-c2ccc(F)cc2)c2ccccc21 (centres undefined) [FLUVASTATIN]
Ki: Not Active

Compound: C/C=C1\[C@H]2C=C(C)C[C@]1(N)c1ccc(=O)[nH]c1C2 [HUPERZINE A]
Ki: Not Active

Compound: CC(=O)S[C@@H]1CC2=CC(=O)CC[C@]2(C)[C@H]2CC[C@@]3(C)[C@@H](CC[C@@]34CCC(=O)O4)[C@H]12 [SPIRONOLACTONE]
Ki: Not Active

Compound: CN[C@H](CC(C)C)C(=O)N[C@H]1C(=O)N[C@@H](CC(N)=O)C(=O)N[C@H]2C(=O)N[C@H]3C(=O)N[C@H](C(=O)N[C@H](C(=O)O)c4cc(O)cc(O)c4-c4cc3ccc4O)[C@H](O)c3ccc(c(Cl)c3)Oc3cc2cc(c3O[C@@H]2O[C@H](CO)[C@@H](O)[C@H](O)[C@H]2O[C@H]2C[C@](C)(N)[C@H](O)[C@H](C)O2)Oc2ccc(cc2Cl)[C@H]1O [VANCOMYCIN]
Ki: Not Active

Compound: NC(=O)c1ncn([C@@H]2O[C@H](CO)[C@@H](O)[C@H]2O)n1 [RIBAVIRIN]
Ki: Not Active

Compound: C[C@]12CCC(=O)C=C1CC[C@@H]1[C@@H]2C(=O)C[C@@]2(C)[C@H]1CC[C@]2(O)C(=O)CO [CORTISONE]
Ki: Not Active

Compound: CC(=O)O[C@]1(C(C)=O)CC[C@H]2[C@@H]3C=C(Cl)C4=CC(=O)CC[C@]4(C)[C@H]3CC[C@@]21C [CHLORMADINONE ACETATE]
Ki: Not Active

Compound: Nc1nc(=O)[nH]cc1F [FLUCYTOSINE]
Ki: Not Active

Q: What value of measured Ki is listed for COc1ccc(CN(CCN(C)C)c2ccccn2)cc1 [PYRILAMINE] ?
Ans: Not Active

Q: # input compound: CN1[C@@H]2CC[C@H]1C[C@@H](OC(=O)c1c[nH]c3ccccc13)C2 [TROPISETRON] ; wanted: its Ki
Ans: Not Active

Q: What Ki value was documented for this compound, Cc1ccc(C(=O)C(C)CN2CCCCC2)cc1 (centres undefined) [TOLPERISONE] ?
Ans: Not Active

Q: Requested read-out: Ki. Entry: C=C1CC[C@H](O)C/C1=C/C=C1\CCC[C@]2(C)[C@@H]([C@H](C)/C=C/[C@H](C)C(C)C)CC[C@@H]12 [ERGOCALCIFEROL]
Ans: Not Active

Q: # input compound: O=C(O)c1cn(C2CC2)c2cc(N3CCNCC3)c(F)cc2c1=O [CIPROFLOXACIN] ; wanted: its Ki
Ans: Not Active

Q: Can you look up the measured Ki of CC1(C)S[C@@H]2[C@H](NC(=O)[C@H](NC(=O)N3CCNC3=O)c3ccccc3)C(=O)N2[C@H]1C(=O)O [AZLOCILLIN] for me?
Ans: Not Active

Q: Given Cc1c(-c2ccccc2)oc2c(C(=O)OCCN3CCCCC3)cccc2c1=O [FLAVOXATE] , state its recorded Ki.
Ans: Not Active

Q: Please report the recorded Ki for O=C1CN=C(c2ccccc2)c2cc([N+](=O)[O-])ccc2N1 [NITRAZEPAM] .
Ans: Not Active

Q: Request the reported Ki associated with NC(=O)c1ccccc1O [SALICYLAMIDE]
Ans: Not Active
